Below, each entry is listed with its recorded relative viability.
# Tested on: SK-MES-1
# method notes: relative viability (nuclei count vs DMSO), 5 days (fraction); higher = more cells survive
# experimental context: first compound 15.81 µM
measured endpoint: relative viability

INSERT INTO results (compound, reading) VALUES
  ('O=C(O)CCCCC(CCSCc1ccccc1)SCc1ccccc1 (configuration not stated) [CPI-613] + N=C(N)NC(=N)NCCc1ccccc1 [Phenformin] (partner 250 µM)', 0.623),
  ('O=C(O)CCCCC(CCSCc1ccccc1)SCc1ccccc1 (configuration not stated) [CPI-613] + COc1cccc2cc(-c3nc([C@H]4CC[C@H](C(=O)O)CC4)n4ncnc(N)c34)[nH]c12 [OSI-027] (partner 0.5 µM)', 0.526),
  ('O=C(O)CCCCC(CCSCc1ccccc1)SCc1ccccc1 (configuration not stated) [CPI-613] + Nc1ncn([C@H]2C[C@H](O)[C@@H](CO)O2)c(=O)n1 [Decitabine] (partner 2 µM)', 0.367),
  ('O=C(O)CCCCC(CCSCc1ccccc1)SCc1ccccc1 (configuration not stated) [CPI-613] + O=C(CCCCCCC(=O)Nc1ccccc1)NO [Vorinostat] (partner 1 µM)', 0.921),
  ('O=C(O)CCCCC(CCSCc1ccccc1)SCc1ccccc1 (configuration not stated) [CPI-613] + CC(=O)Nc1cccc(-n2c(=O)n(C3CC3)c(=O)c3c(Nc4ccc(I)cc4F)n(C)c(=O)c(C)c32)c1 [Trametinib] (partner 0.02 µM)', 0.49),
  ('O=C(O)CCCCC(CCSCc1ccccc1)SCc1ccccc1 (configuration not stated) [CPI-613] + O=C(c1cc(Cc2n[nH]c(=O)c3ccccc23)ccc1F)N1CCN(C(=O)C2CC2)CC1 [Olaparib] (partner 8 µM)', 0.635),
  ('O=C(O)CCCCC(CCSCc1ccccc1)SCc1ccccc1 (configuration not stated) [CPI-613] + CS(=O)(=O)CCNCc1ccc(-c2ccc3ncnc(Nc4ccc(OCc5cccc(F)c5)c(Cl)c4)c3c2)o1 [Lapatinib] (partner 2 µM)', 0.399);

---

# Tested on: NCI-H1651
# method notes: relative viability (nuclei count vs DMSO), 5 days (fraction); higher = more cells survive
# experimental context: first compound 8 µM
So basically: is relative viability under 0.9? Then label 1. Not under? Then label 0.

INSERT INTO assay_data (molecule, class_label) VALUES
  ('O=c1[nH]c2ccccc2n1C1CCN(CCCC(c2ccc(F)cc2)c2ccc(F)cc2)CC1 [Pimozide] + COc1cc2c(Oc3ccc(NC(=O)C4(C(=O)Nc5ccc(F)cc5)CC4)cc3F)ccnc2cc1OCCCN1CCOCC1 [Foretinib] (partner 0.25 µM)', 'label 1'),
  ('O=c1[nH]c2ccccc2n1C1CCN(CCCC(c2ccc(F)cc2)c2ccc(F)cc2)CC1 [Pimozide] + C[C@@H](Oc1cc(-c2cnn(C3CCNCC3)c2)cnc1N)c1c(Cl)ccc(F)c1Cl [Crizotinib] (partner 1 µM)', 'label 0'),
  ('O=c1[nH]c2ccccc2n1C1CCN(CCCC(c2ccc(F)cc2)c2ccc(F)cc2)CC1 [Pimozide] + COc1cccc2cc(-c3nc([C@H]4CC[C@H](C(=O)O)CC4)n4ncnc(N)c34)[nH]c12 [OSI-027] (partner 0.5 µM)', 'label 1'),
  ('O=c1[nH]c2ccccc2n1C1CCN(CCCC(c2ccc(F)cc2)c2ccc(F)cc2)CC1 [Pimozide] + C[C@]1(O)C[C@@H](c2nc(-c3ccc4ccc(-c5ccccc5)nc4c3)c3c(N)nccn32)C1 [Linsitinib] (partner 1 µM)', 'label 0');
